Cited source: PubChem BioAssay (NCI)

# System: MDA-MB-435
# METHOD: NCI tumour cell line growth inhibition, 48 h
Assign 1 to entries whose TGI meets or exceeds 40 µM; assign 0 to the rest.

# COMPOUND, CLASS_LABEL
measured = [
    ("CCOC(=O)c1cc(C2CCN(Cc3ccccc3)C2=O)c(C(=O)/C=C(/C)N)[nH]1 (stereo not drawn)", 1),
    ("CCCn1cc(/C=N\\N=C2\\C(=O)Nc3ccc(C)cc32)c2ccccc21", 0),
    ("[O-][N+]1=C(c2ccccc2)/C(=C2/C(c3ccccc3)=[N+]([O-])c3ccccc32)Cc2ccccc21", 1),
    ("Cn1c2ccccc2c(=NNc2ccc(S(=O)(=O)N=C(N)N)cc2)c2ccccc21", 0),
    ("O=C1NC(NNc2ccccc2)=N/C1=C\\c1ccco1", 1),
    ("CN1CCN(C(=O)[C@@]2(C)CC[C@]3(C)CC[C@]4(C)C(=CC[C@@H]5[C@@]6(C)CC[C@H](OC(=O)c7cccnc7)C(C)(C)[C@@H]6CC[C@]54C)[C@@H]3C2)CC1", 0),
    ("Cc1cnc(-c2ccc(-c3ccc(NC(=O)Nc4cccc(C(F)(F)F)c4)cc3F)c3c2C(=O)NC3)[nH]1", 1),
    ("COc1ccc2nc3c([N+](=O)[O-])ccc4c3c(c2c1)N=CN4CCN(C)C", 0),
    ("C#Cc1cccc(Nc2ncnc3ccc(-c4cnc(N)nc4)cc23)c1", 0),
    ("COc1cc2c(cc1OC)-c1c(c3ccc([N+](=O)[O-])cc3c(=O)n1CCCN=[N+]=[N-])C2=O", 1),
    ("Cc1ccc(/C=C2\\CCS(=O)(=O)c3ccccc3C2=O)cc1", 1),
    ("COc1ccc2[nH]cc(Cc3c[nH]c4ccc(OC)cc34)c2c1", 0),
    ("COc1cc2c(cc1OC)-c1cc3cc(OC)c(OC)cc3c(C)[n+]1CC2 (tested in a mixture with another compound)", 1),
    ("COC1/C=C/OC2(C)Oc3c(C)c(O)c4c(O)c(c(/C=N/N(c5ccccc5)c5ccccc5)c(O)c4c3C2=O)NC(=O)C(C)=C/C=C/C(C)C(O)C(C)C(O)C(C)C(OC(C)=O)C1C (stereo not drawn)", 0),
    ("Cc1nnc(N)nc1C/C=C/C(C)Sc1ccc(Cl)cc1 (stereo not drawn)", 1),
    ("O=c1[nH]c(Br)nc2n[nH]nc12", 1),
    ("CCOC(=O)CN1C(=O)c2c(NC(=O)C(=O)O)cccc2S1(=O)=O", 1),
    ("CC(C)c1ccc(C(O)(C(=O)O)c2ccc(C(C)C)cc2)cc1", 1),
    ("Cn1cc(-c2csc(-c3cn(CCCN4CCCCC4)c4ccc(Br)cc34)n2)c2cccnc21", 0),
    ("C[n+]1ccc2/c(=C\\C#N)c3ccccc3n21", 1),
    ("O=C1/C(=C/c2cccc([N+](=O)[O-])c2)Cc2ccccc21", 1),
    ("CCCc1cn2c(/C=N/N=C(N)N)c(-c3ccc([N+](=O)[O-])cc3)nc2s1", 0),
    ("O=c1[nH][nH]c(=O)c2c(O)c(-c3ccccc3)ncc12", 1),
    ("O=[N+]([O-])c1cc(C(F)(F)F)cc2n[se]nc12", 0),
    ("O=c1[nH]nc(-c2ccccc2)n1-n1cccc1", 1),
    ("Nc1n[nH]c(N)n1", 1),
    ("O=C(Nc1cccc(-n2ccc3c(NC(=O)c4ccccc4)nccc32)c1)c1ccc(Cl)c(Cl)c1", 0),
    ("O=C(CCN1CCCC1)Nc1ccc2c(Nc3ccc(Br)cc3)c3ccccc3nc2c1", 0),
    ("CSc1nc(SC)c2c(C)c(Br)[nH]c2n1", 1),
    ("O=C(/C=C/c1ccc(O)c(O)c1)c1ccc(O)cc1O", 0),
]

---

# Test system: LOX IMVI melanoma
# METHOD: NCI tumour cell line growth inhibition, 48 h; in the data active means GI50 below about 0.43 µM; inactive means the rest
Classes used: True (active), False (inactive)

# MOLECULE, CLASS_LABEL
rows = [
    ("CN1CCN(C(=O)[C@@]2(C)CC[C@]3(C)CC[C@]4(C)C(=CC[C@@H]5[C@@]6(C)CC[C@H](OC(=O)c7cccnc7)C(C)(C)[C@@H]6CC[C@]54C)[C@@H]3C2)CC1", "False"),
    ("CCCCNP1(NCCCC)=NP(NCCCC)(NCCCC)=NP(NCCCC)(NCCCC)=NP(NCCCC)(NCCCC)=N1", "True"),
    ("CCN(CC)CCOc1ccc(NC(=O)C(C(C)C)N2C(=O)/C(=C/c3ccc(Br)cc3)SC2=S)cc1 (stereo not given)", "False"),
    ("CC[C@@]1(O)C(=O)OCc2c1cc1n(c2=O)Cc2cc3cccc(N)c3nc2-1", "False"),
    ("O=C(Nc1cccc(-n2ccc3c(NC(=O)c4ccccc4)nccc32)c1)c1ccc(Cl)c(Cl)c1", "True"),
    ("COc1ccc(-c2nsc3c2NC(=O)CC3c2cccc(F)c2)cc1 (stereo not given)", "False"),
    ("C#Cc1cccc(Nc2ncnc3ccc(-c4cnc(N)nc4)cc23)c1", "False"),
    ("CCCCCCCCCCCCSC1=CC(=O)C=CC1=O", "False"),
    ("CN(C)C[C@@H]1CCn2cc(c3ccccc32)C2=C(C(=O)NC2=O)c2cn(c3ccccc23)CCO1", "False"),
    ("CCOC(=O)Nc1cc2c(c(N)n1)N=C(c1ccccc1)CN2", "True"),
    ("O=C(O)CC(S)C(=O)O.[Li+].[Sb] (stereo not given)", "False"),
    ("COc1ccc2[nH]cc(Cc3c[nH]c4ccc(OC)cc34)c2c1", "False"),
    ("Oc1ccccc1/C=N\\Nc1ccccc1", "False"),
    ("O=C1c2c(c3c4ccccc4n(CCCCCCN4CCOCC4)c3c3[nH]c4ccccc4c23)C(=O)N1O", "True"),
    ("NCCNc1ccc(NCCN)c2c1C(=O)c1c(O)ccc(O)c1C2=O", "True"),
]

---

# System: SF-539 CNS
# METHOD: NCI tumour cell line growth inhibition, 48 h
Listing: TGI of selected compounds
READOUT_NAME: TGI

# COMPOUND, MEAS_VALUE
rows = [
    ("Cc1cc(N(CCC#N)CCC#N)ccc1/C=C(\\N=[N+]=[N-])C(=O)NC(=O)COc1ccccc1", "> 100 µM"),
    ("C/C(CC(=O)Nc1cccc([N+](=O)[O-])c1)=N/NC(N)=S", "> 100 µM"),
    ("CC1(C)C=C(N2CCN(C3=CC(C)(C)NC(C)(C)C3)CC2)CC(C)(C)N1", "> 100 µM"),
    ("Cc1ccc2nc(-c3nccn3C)cc(C(=O)NC(C)CN(C)C)c2c1 (centres undefined)", "> 100 µM"),
]

---

Listing: TGI of selected compounds
# Test system: MDA-N
# METHOD: NCI tumour cell line growth inhibition, 48 h

# COMPOUND, TGI
records = [
    ("Cc1c2c(n3c(nc4ccccc43)c1C#N)NCC2", "> 10 µM"),
    ("CCOC(=O)c1c(Br)c(-c2ccc([N+](=O)[O-])cc2)c(Br)n1C", "> 10 µM"),
    ("CC(C)NC(=O)OCc1c(COC(=O)NC(C)C)c(-c2cc[n+](COC(=O)Cc3ccccc3)cc2)n2c1CCC2", "> 100 µM"),
    ("O=C(Cn1c2ccc(Br)cc2c2nc3ccccc3nc21)N1CCOCC1", "> 100 µM"),
    ("Nc1n[nH]c(N)n1", "> 10000 µM"),
    ("CCOC(OCC)[C@@H]1C[C@@H]2N(O[C@H](OC3CCCC3(c3ccccc3)c3ccccc3)[C@H](OC(C)=O)[C@@]2(CC)Cc2ccc(OC)c(OC)c2)O1 (some centres not stated)", "> 100 µM"),
    ("Nc1nc(N)c2c(-c3ccccc3)ccnc2n1", "> 100 µM"),
    ("O=C1Nc2n[nH]c(=S)n2NC12c1ccccc1-c1ccccc12", "> 100 µM"),
    ("CC(=O)OC1CC2C(=O)CC1(C)C2(C)C (configuration not stated)", "> 100 µM"),
    ("CSc1nc(SC)c2c(C)c(Br)[nH]c2n1", "> 100 µM"),
    ("C[C@@]12C[C@@H](c3ccccc3O1)N1CCCSC1=N2", "> 100 µM"),
    ("CC(Cn1c(=O)oc2ccccc21)N(C)C (configuration not stated)", "> 100 µM"),
    ("NC1C2C=CC(C2)C1C(=O)O (configuration not stated)", "> 100 µM"),
    ("COc1cc2c(cc1OC)-c1cc3cc(OC)c(OC)cc3c(C)[n+]1CC2 (tested in a mixture with another compound)", "> 100 µM"),
    ("O=C(O)c1ccccc1/C=N\\N(CCO)C1=NCCN1", "> 100 µM"),
    ("Cc1nnc(N)nc1C/C=C/C(C)Sc1ccc(Cl)cc1 (configuration not stated)", "> 100 µM"),
    ("CC1=C(C(=O)NNC(=O)c2ccccc2O)CC(C(=O)NNC(=O)c2ccccc2O)=C(C)N1", "> 100 µM"),
]
